Just for reference, patent US20260258115A1 is where these values come from.

- systemName: RSV F on RSV subtype A virus (mKate-RSV A2) (respiratory syncytial virus A2, UniProt P03420 26-574)
- assayName: cell-based or functional assay
Could you please report measured Neut IC50 subtype A for the items listed next?
Response body: numeric value in µg/mL, unit text excluded.

(Q) Let me know recorded Neut IC50 subtype A for ADI-14364 (antibody, V domains shown, full-length IgG; also called Ab 32) VH: QVQLVQSGAEVKKPGESLKISCKGSGYSFTSHWIGWVRQMPGKGLEWMGITDPGDSDTRYSPSFQGQVTISADKSISTAYLQWSSLKASDTAMYYCAREPRRWMTTETNGPYYFDNWGQGTLVTVSS VL: SYVLTQPPSVSVAPGKTARITCGGNNIGSKSVHWYQQKPGQAPVLVIYYDSDRPSGIPERFSGSNSGNTATLTISRVEAGDEADYYCQVWDSSSDNRVFGGGTKVTVL , thanks.
(A) 0.03

(Q) Let me know recorded Neut IC50 subtype A for ADI-25575 (antibody, V domains shown, full-length IgG) VH: EVQLVESGAEVKKPGASVKVSCKASGYTFTSYYMHWVRQAPGQGLEWMGIINPSGGSTSYAQKFQGRVTMTRDTSTSTVYMELSSLRSEDTAVYYCARGPYDSSGYCDYWGQGTLVTVSS VL: SYELTQPPSVSVAPGKTARITCGGNNIGSKSVHWYQQKPGQAPVLVVYDDSDRPSGIPERFSGSNSGNTATLTISRVEAGDEADYYCQVWDSSSDQVFGGGTKLTVL , thanks.
(A) 5.64

(Q) Let me know recorded Neut IC50 subtype A for ADI-24812 (antibody, V domains shown, full-length IgG) VH: EVQLVESGGGLVQPGGSLRLSCAASGFSFSTYAMSWVRQAPGKGLEWVSAISGGGGSTYYADSVKGRFTISRDNSKNTLYLQVNSLRAEDTAVYYCARGGYCSSDSCYPFDFWGQGTLVTVSS VL: QPVLTQPPSVSVSPGQTAMITCSGDALPKQYAYWYQQKPGQAPVLVIYKDSERPSGIPERFSGSSSGTTVTLTISGVQAEDEADYYCQSADNSGSYAVFGGGTQLTVL , thanks.
(A) 0.18
